Target: hTLR7 (human Toll-like receptor 7) (Homo sapiens)
Sequence (Q9NYK1 27-1049): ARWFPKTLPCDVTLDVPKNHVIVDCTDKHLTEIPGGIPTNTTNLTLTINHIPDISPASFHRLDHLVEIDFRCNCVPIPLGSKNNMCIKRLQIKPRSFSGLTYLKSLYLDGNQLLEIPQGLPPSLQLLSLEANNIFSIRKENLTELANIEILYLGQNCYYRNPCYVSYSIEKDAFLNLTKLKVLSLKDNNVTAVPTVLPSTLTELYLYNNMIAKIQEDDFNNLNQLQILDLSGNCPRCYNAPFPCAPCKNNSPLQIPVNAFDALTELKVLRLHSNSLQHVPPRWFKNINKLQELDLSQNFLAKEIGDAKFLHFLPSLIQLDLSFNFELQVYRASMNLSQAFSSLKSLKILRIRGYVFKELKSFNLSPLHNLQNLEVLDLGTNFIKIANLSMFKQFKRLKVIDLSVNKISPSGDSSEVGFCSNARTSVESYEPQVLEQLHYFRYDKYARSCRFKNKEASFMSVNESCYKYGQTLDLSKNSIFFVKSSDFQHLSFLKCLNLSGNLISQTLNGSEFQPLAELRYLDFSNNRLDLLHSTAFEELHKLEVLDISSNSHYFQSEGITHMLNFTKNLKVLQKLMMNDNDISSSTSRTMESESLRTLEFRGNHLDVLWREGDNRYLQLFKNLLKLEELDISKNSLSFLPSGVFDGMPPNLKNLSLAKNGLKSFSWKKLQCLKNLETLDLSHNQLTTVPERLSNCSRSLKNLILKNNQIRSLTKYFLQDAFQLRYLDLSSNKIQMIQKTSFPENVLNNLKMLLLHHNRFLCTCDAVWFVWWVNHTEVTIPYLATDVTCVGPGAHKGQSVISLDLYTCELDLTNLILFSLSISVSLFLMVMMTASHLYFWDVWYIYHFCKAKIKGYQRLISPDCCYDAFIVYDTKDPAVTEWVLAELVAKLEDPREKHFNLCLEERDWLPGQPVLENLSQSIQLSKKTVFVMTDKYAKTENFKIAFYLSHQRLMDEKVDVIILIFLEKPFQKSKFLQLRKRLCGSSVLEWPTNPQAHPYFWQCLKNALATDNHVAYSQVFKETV
Assay: hTLR7 cell assay (HEK-Blue hTLR7 reporter cells)
Settings: 24 hours, OD 650 nm
As shown below, each of these compounds has a reported EC50 value.

Recorded results for 5 compounds are shown here.
compound="CCCCc1nc2c(N)nc3cc(Cc4ccc5c(c4)C(N)CC5)ccc3c2n1CC(C)(C)O (stereo not drawn)" measurement_kind=EC50 result="< 1000 nM"
compound="CCCC(C)c1nc2c(N)nc3cc(Cc4cccc(CN)c4)ccc3c2n1CC(C)(C)O (stereo not drawn)" measurement_kind=EC50 result="1000 to 10000 nM"
compound=CCCCc1nc2c(N)nc3cc(Cc4ccccc4)ccc3c2n1CC(C)(C)OCCN measurement_kind=EC50 result="< 1000 nM"
compound="CCCC(C)c1nc2c(N)nc3cc(Cc4ccc(CCCN)cc4)ccc3c2n1CC(C)(C)O (stereo not drawn)" measurement_kind=EC50 result="1000 to 10000 nM"
compound=CCCCc1nc2c(N)nc3cc(Cc4ccc(CCCN)cc4)ccc3c2n1CC(C)(C)O measurement_kind=EC50 result="1000 to 10000 nM"

INPUT: # return recorded EC50 for entry "CCOCc1nc2c(N)nc3cc(Cc4ccc(CC(N)=O)cc4)ccc3c2n1CC(C)(C)O"
OUTPUT: < 1000 nM

INPUT: # return recorded EC50 for entry "CCOCc1nc2c(N)nc3cc(Cc4ccccc4)ccc3c2n1CC(C)(C)OCCN"
OUTPUT: 1000 to 10000 nM
